Below: a set of entries, each annotated with reported Enzyme degradation CDK9 (% remaining) @ 0.1 μM.
System under test: CDK9 (Homo sapiens, UniProt P50750)
Construct: endogenous in cells; host or cells: MDA-MB-231
Sequence (P50750 whole entry): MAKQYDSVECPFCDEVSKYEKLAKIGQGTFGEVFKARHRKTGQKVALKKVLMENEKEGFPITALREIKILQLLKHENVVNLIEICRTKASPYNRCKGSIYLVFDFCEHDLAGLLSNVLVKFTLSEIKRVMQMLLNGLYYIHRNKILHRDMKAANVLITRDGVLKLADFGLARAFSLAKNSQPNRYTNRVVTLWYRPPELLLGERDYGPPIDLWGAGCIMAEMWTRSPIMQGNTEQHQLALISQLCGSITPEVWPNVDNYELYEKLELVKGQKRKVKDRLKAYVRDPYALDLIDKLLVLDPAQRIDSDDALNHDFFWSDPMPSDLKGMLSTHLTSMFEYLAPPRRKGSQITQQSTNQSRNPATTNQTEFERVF
Method: CDK protein degradation activity (Western blotting), CDK9
Assay type: cell-based
Condition description: MDA-MB-231 cells, 0.1 μM, 16 hours, Western blot
Write the value in % as a bare number.

Look over these answered cases.
Compound	System under test	Test value
Cc1cccc(C(=O)N[C@H]2C[C@@H](n3cnc4c(Nc5ccc(N6CCN(C(=O)CNc7cccc8c7C(=O)N([C@H]7CCC(=O)NC7=O)C8=O)CC6)cc5)ncnc43)C2)n1	CDK9 (Homo sapiens, UniProt P50750)	50
Cc1cccc(C(=O)N[C@H]2C[C@@H](n3cnc4c(Nc5ccc(N6CCN(CC7CCN(C(=O)C8CCN(c9cc%10c(cc9F)C(=O)N([C@H]9CCC(=O)NC9=O)C%10=O)CC8)CC7)CC6)cc5)ncnc43)C2)n1	CDK9 (Homo sapiens, UniProt P50750)	50
O=C1CCC(N2C(=O)c3ccc(N4CCC(C(=O)N5CC(N6CCN(c7ccc(Nc8ncnc9c8ncn9[C@H]8C[C@@H](NC(=O)Cc9ccccc9)C8)cc7)CC6)C5)CC4)cc3C2=O)C(=O)N1 (stereo partly drawn)	CDK9 (Homo sapiens, UniProt P50750)	50

Exercise: Tell me Enzyme degradation CDK9 (% remaining) @ 0.1 μM reported for O=C1CC[C@H](N2C(=O)c3ccc(NCC(=O)N4CCC(CN5CCN(c6ccc(Nc7ncnc8c7ncn8C7CC(NC(=O)Cc8ccccc8)C7)cc6)CC5)CC4)cc3C2=O)C(=O)N1 (stereo partly drawn)
Solution: 30
